# METHOD: in vitro
# EXPERIMENTAL CONDITIONS: rat, gh3-tre-luc cells, AC50 (uM) modified / 1000, Tox21_110001=Tox21_110352; viability, 1 nM T3 present, 24 h
PROPERTY NAME: CC50 at 24 h

Given the compound CCC1(C)CC(=O)NC(=O)C1 [Bemegride] , what is its reported CC50 at 24 h? > 20 µM

----------
# Test system: GH3-TRE-Luc cell line
# EXPERIMENTAL CONDITIONS: read-out: AC50 (uM) modified / 1000; Tox21_110001=Tox21_300498; viability, 1 nM T3 present, 24 h
PROPERTY NAME: CC50 (µM)
Give the quantity in µM, number only.

Given the compound "CC(C)(C)CC(C)(C)c1ccc(O)c(-n2nc3ccccc3n2)c1" , what is its reported CC50? 32.7
